# Test system: ABUTH
# method: Pre-emergence herbicidal activity, glasshouse pot test; note: key: 5=total damage to plant; 0=no damage to plant
# Assay type: in vivo
# run parameters: rate 1000 g/Ha, evaluated after 13 days, scale 0-5
outcome measure: ABUTH damage score, application pre-emergence
Give your answer as a number; write no unit.

Consider the reported ABUTH damage score, application pre-emergence for these molecules:
CC1NC(=O)N(c2cc(C(F)(F)F)ccn2)C1O (stereo not drawn) | 4
COc1ncc(-c2cnc(N3C(=O)N(C)C(C)C3O)cc2C(F)(F)F)cn1 (stereo not drawn) | 5
CON1C(=O)N(c2cc(C(F)(F)F)c(C)cn2)C(O)[C@@H]1C (stereo partly drawn) | 5

Request: Identify ABUTH damage score, application pre-emergence associated with the molecule CC1C(O)N(c2cc(C(F)F)c(Cl)cn2)C(=O)N1C (stereo not drawn)
Result: 5

Request: Identify ABUTH damage score, application pre-emergence associated with the molecule CCO[C@@H]1[C@@H](OC(=O)[C@](OC)(c2ccccc2)C(F)(F)F)N(c2cc(C(F)(F)F)ccn2)C(=O)N1C
Result: 5

Request: Identify ABUTH damage score, application pre-emergence associated with the molecule CCOC1C(O)N(c2cc(C(C)(F)F)ccn2)C(=O)N1C (stereo not drawn)
Result: 5

Request: Identify ABUTH damage score, application pre-emergence associated with the molecule CN1C(=O)N(c2cc(C(F)(F)F)ccn2)C(O)C1C(F)(F)F (stereo not drawn)
Result: 4

Request: Identify ABUTH damage score, application pre-emergence associated with the molecule CCOC1C(O)N(c2cc(C(F)(F)F)c(Cl)cn2)C(=O)N1C (stereo not drawn)
Result: 5

Request: Identify ABUTH damage score, application pre-emergence associated with the molecule COCN1C(=O)N(c2cc(C(F)(F)F)ccn2)C(O)C1C (stereo not drawn)
Result: 5
